system: human HIPK1 (Homo sapiens, UniProt Q86Z02)
Construct: Recombinant human HIPK1 (156-555); GST (N); purchased SignalChem H03-11G; host or cells: Sf9 insect cells
Sequence (Q86Z02 156-555): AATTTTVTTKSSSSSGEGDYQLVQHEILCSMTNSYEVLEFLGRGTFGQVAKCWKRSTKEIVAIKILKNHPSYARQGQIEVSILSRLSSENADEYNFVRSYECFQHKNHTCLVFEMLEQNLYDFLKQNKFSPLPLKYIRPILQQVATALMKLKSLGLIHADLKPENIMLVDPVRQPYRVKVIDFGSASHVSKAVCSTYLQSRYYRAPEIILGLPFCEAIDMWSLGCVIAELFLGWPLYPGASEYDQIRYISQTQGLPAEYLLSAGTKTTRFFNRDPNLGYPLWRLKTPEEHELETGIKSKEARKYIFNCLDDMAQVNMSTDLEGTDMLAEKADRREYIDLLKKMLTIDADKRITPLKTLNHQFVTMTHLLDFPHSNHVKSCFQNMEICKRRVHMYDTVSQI
assay comment: HIPK1 enzyme assay (ADP-Glo)
Assay type: biochemical
cond: ADP-Glo, ATP 5 μM; read-out: HIPK1 IC50
pIC50: −log10 of the molar value.
assay readout: pIC50

INSERT INTO results (molecular_string, result) VALUES
  ('CCN(C1=N/C(=C\c2ccc3c(c2)OCO3)C(=O)N1)c1ccccc1', '< 5.00'),
  ('CN(CC1CC1)C1=N/C(=C\c2ccc3ncsc3c2)C(=O)N1', '< 5.00'),
  ('COc1ccc(NC2=N/C(=C\c3ccc4ncsc4c3)C(=O)N2)cc1', '6.00 to 7.00'),
  ('O=C1NC(Nc2ccc3ncsc3c2)=N/C1=C\c1ccc2ncsc2c1', '6.00 to 7.00'),
  ('NC1=N/C(=C\c2ccc3ncsc3c2)C(=O)N1', '6.00 to 7.00'),
  ('O=C1NC(Nc2ccc3ncsc3c2)=N/C1=C\c1cncs1', '6.00 to 7.00'),
  ('CN(C1=N/C(=C\c2ccc3c(c2)OCO3)C(=O)N1)c1ccc2ncsc2c1', '< 5.00'),
  ('O=C1NC(Nc2ccc3ncsc3c2)=N/C1=C\c1ccc2nc[nH]c2c1', '6.00 to 7.00');

----------
Here, each record is paired with measured IC50 data.
system: human HIPK2 (Homo sapiens, UniProt Q9H2X6)
Construct: Recombinant human HIPK2 (1-640); GST (N); purchased SignalChem H04-11BG; host or cells: Sf9 insect cells
Sequence (Q9H2X6 1-640): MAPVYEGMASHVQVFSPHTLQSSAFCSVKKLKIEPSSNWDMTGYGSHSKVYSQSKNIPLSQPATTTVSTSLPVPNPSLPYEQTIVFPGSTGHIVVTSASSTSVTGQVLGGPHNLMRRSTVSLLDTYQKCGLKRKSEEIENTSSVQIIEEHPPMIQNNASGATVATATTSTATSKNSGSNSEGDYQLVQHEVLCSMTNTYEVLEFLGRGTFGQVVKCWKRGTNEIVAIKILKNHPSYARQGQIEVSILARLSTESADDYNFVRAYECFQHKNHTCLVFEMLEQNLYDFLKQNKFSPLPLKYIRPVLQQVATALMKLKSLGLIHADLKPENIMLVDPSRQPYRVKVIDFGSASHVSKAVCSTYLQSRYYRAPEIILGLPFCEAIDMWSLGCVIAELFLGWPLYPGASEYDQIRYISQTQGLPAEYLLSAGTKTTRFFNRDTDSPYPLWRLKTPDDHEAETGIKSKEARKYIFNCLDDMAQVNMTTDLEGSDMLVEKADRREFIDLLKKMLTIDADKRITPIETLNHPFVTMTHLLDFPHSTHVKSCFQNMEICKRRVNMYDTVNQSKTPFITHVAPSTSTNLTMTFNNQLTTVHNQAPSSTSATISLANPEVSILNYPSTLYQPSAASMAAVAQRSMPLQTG
assay comment: HIPK2 enzyme assay (ADP-Glo)
Format: biochemical
cond: ADP-Glo, ATP 5 μM; read-out: HIPK2 IC50
assay readout: IC50

INSERT INTO measurements (molecule, assay_readout, result) VALUES
  ('CCN(C1=N/C(=C\c2ccc3c(c2)OCO3)C(=O)N1)c1ccccc1 [Example 4]', 'IC50', '> 10 µM'),
  ('Cn1cnc2ccc(/C=C3\N=C(Nc4ccc5ncsc5c4)NC3=O)cc21 [Example 75]', 'IC50', '< 0.1 µM'),
  ('O=C1NC(N(CCO)c2ccccc2)=N/C1=C\c1ccc2c(c1)OCO2 [Example 13]', 'IC50', '1 to 10 µM'),
  ('O=C1NC(Nc2ccc3[nH]ccc3c2)=N/C1=C\c1ccc2ncsc2c1 [Example 69]', 'IC50', '< 0.1 µM'),
  ('O=C1NC(N(Cc2ccccc2)c2ccccc2)=N/C1=C\c1ccc2c(c1)OCO2 [Example 22]', 'IC50', '> 10 µM'),
  ('O=C1NC(Nc2ccc3ncsc3c2)=N/C1=C\c1ccc2cn[nH]c2c1 [Example 95]', 'IC50', '> 10 µM'),
  ('CN(CC1CC1)C1=N/C(=C\c2ccc3ncsc3c2)C(=O)N1 [Example 33]', 'IC50', '1 to 10 µM'),
  ('CN(C1=N/C(=C\c2ccc3ncsc3c2)C(=O)N1)c1ccc2ncsc2c1 [Example 83]', 'IC50', '> 10 µM'),
  ('O=C1/C(=C/c2ccc3c(c2)OCO3)N=C(N(Cc2ccccc2)c2ccccc2)N1Cc1ccccc1 [Example 2]', 'IC50', '> 10 µM'),
  ('O=C1NC(Nc2ccccc2)=N/C1=C\c1ccc2sccc2c1 [Example 72]', 'IC50', '> 10 µM');

----------
system: human HIPK1 (Homo sapiens, UniProt Q86Z02)
Construct: Recombinant human HIPK1 (156-555); GST (N); purchased SignalChem H03-11G; host or cells: Sf9 insect cells
assay comment: HIPK1 enzyme assay (ADP-Glo)
Type: biochemical
cond: ADP-Glo, ATP 5 μM; read-out: HIPK1 IC50
assay readout: IC50

INSERT INTO results (molecule, result) VALUES
  ('O=C1NC(N(CCO)c2ccccc2)=N/C1=C\c1ccc2c(c1)OCO2 [Example 13]', '1 to 10 µM'),
  ('O=C1NC(Nc2ccccc2)=N/C1=C\c1ccc2nccnc2c1 [Example 16]', '1 to 10 µM'),
  ('O=C1NC(Nc2ccccc2)=N/C1=C\c1ccc2[nH]ncc2c1 [Example 55]', '> 10 µM');

----------
system: human GSK3 beta (Homo sapiens)
Construct: Recombinant full-length human GSK3 beta (expressed in Sf9 insect cells with an N-terminal His tag); His (N)
Sequence (P49841 whole entry): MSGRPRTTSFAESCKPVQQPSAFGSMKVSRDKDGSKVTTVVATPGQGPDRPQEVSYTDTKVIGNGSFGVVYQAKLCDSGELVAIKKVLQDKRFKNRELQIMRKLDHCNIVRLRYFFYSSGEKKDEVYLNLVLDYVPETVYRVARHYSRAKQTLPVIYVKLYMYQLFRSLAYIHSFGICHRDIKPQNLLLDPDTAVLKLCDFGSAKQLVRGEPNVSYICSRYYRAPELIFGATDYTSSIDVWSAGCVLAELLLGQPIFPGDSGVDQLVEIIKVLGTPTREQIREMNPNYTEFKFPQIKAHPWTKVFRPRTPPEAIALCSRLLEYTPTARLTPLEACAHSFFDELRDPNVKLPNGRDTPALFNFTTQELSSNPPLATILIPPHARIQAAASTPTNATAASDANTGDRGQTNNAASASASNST
assay comment: GSK3 beta enzyme assay (ADP-Glo)
cond: ATP 25 μM, read-out: GSK3b IC50
pIC50: −log10 of the molar value.
Here, each record is paired with measured pIC50 data.
assay readout: pIC50

INSERT INTO results (compound, assay_readout, result) VALUES
  ('O=C1NC(Nc2ccccc2)=N/C1=C\c1ccc2nn[nH]c2c1 [Example 56]', 'pIC50', '5.00 to 6.00'),
  ('CN(C1=N/C(=C\c2ccc3c(c2)OC(F)(F)O3)C(=O)N1)c1ccccc1 [Example 17]', 'pIC50', '< 5.00'),
  ('Cc1nc2ccc(NC3=N/C(=C\c4ccc5ncsc5c4)C(=O)N3)cc2s1 [Example 90]', 'pIC50', '< 5.00');

----------
system: human GSK3 beta (Homo sapiens)
Construct: Recombinant full-length human GSK3 beta (expressed in Sf9 insect cells with an N-terminal His tag); His (N)
assay comment: GSK3 beta enzyme assay (ADP-Glo)
cond: ATP 25 μM, read-out: GSK3b IC50
pIC50: −log10 of the molar value.
assay readout: pIC50

INSERT INTO measurements (molecular_string, result) VALUES
  ('O=C1NC(Nc2ccccc2)=N/C1=C\c1ccc2sccc2c1', '< 5.00'),
  ('CC(=O)N(C1=N/C(=C\c2ccc3ncsc3c2)C(=O)N1)c1ccc2ncsc2c1', '< 5.00'),
  ('O=C1NC(Nc2ccc3ncsc3c2)=N/C1=C\c1ccc2cn[nH]c2c1', '< 5.00'),
  ('O=C1NC(Nc2ccccc2)=N/C1=C\c1ccc2[nH]ncc2c1', '6.00 to 7.00'),
  ('O=C1NC(Nc2ccccc2)=N/C1=C\c1ccc2ncccc2c1', '< 5.00'),
  ('CN(C1=N/C(=C\c2ccc3c(c2)OCO3)C(=O)N1)c1cccnc1', '< 5.00');

----------
system: human HIPK2 (Homo sapiens, UniProt Q9H2X6)
Construct: Recombinant human HIPK2 (1-640); GST (N); purchased SignalChem H04-11BG; host or cells: Sf9 insect cells
assay comment: HIPK2 enzyme assay (ADP-Glo)
Type: biochemical
cond: ADP-Glo, ATP 5 μM; read-out: HIPK2 IC50
pIC50: −log10 of the molar value.
Here, each record is paired with measured pIC50 data.
assay readout: pIC50

INSERT INTO measurements (molecule, result) VALUES
  ('O=C1NC(NCC2CC2)=N/C1=C\c1ccc2ncsc2c1 [Example 34]', '5.00 to 6.00'),
  ('O=C1NC(NCCN2CCOCC2)=N/C1=C\c1ccc2ncsc2c1 [Example 29]', '5.00 to 6.00'),
  ('O=C1NC(N(CC2CC2)c2ccccc2)=N/C1=C\c1ccc2c(c1)OCCO2 [Example 39]', '< 5.00'),
  ('Cn1cnc2cc(/C=C3\N=C(Nc4ccccc4)NC3=O)ccc21 [Example 71]', '< 5.00'),
  ('NC(=O)CCN(C1=N/C(=C\c2ccc3c(c2)OCO3)C(=O)N1)c1ccccc1 [Example 36]', '< 5.00'),
  ('Nc1ccc(NC2=N/C(=C\c3ccc4ncsc4c3)C(=O)N2)cc1 [Example 98]', '6.00 to 7.00'),
  ('O=C1NC(Nc2ccc3ncsc3c2)=N/C1=C\c1ccc2nc[nH]c2c1 [Example 76]', '6.00 to 7.00'),
  ('O=C1NC(Nc2ccccc2)=N/C1=C\c1ccc2[nH]ncc2c1 [Example 55]', '6.00 to 7.00'),
  ('O=C1NC(NC23CC4CC(CC(C4)C2)C3)=N/C1=C\c1ccc2scnc2c1 [Example 50]', '< 5.00'),
  ('CN(Cc1ccccc1)C1=N/C(=C\c2ccc3ncsc3c2)C(=O)N1 [Example 28]', '5.00 to 6.00'),
  ('CN1C(=O)/C(=C/c2ccc3ncsc3c2)N=C1Nc1ccc2ncsc2c1 [Example 88]', '< 5.00'),
  ('O=C1NC(=S)N/C1=C\c1ccc2sccc2c1 [Example 96]', '< 5.00'),
  ('CC(C)Nc1nc2ccc(NC3=N/C(=C\c4ccc5ncsc5c4)C(=O)N3)cc2s1 [Example 100]', '6.00 to 7.00');

----------
system: human CIT (Homo sapiens, UniProt O14578)
Construct: Recombinant human CIT (1-499); GST (N); purchased SignalChem C52-11G; host or cells: Sf9 insect cells
Sequence (O14578 1-499): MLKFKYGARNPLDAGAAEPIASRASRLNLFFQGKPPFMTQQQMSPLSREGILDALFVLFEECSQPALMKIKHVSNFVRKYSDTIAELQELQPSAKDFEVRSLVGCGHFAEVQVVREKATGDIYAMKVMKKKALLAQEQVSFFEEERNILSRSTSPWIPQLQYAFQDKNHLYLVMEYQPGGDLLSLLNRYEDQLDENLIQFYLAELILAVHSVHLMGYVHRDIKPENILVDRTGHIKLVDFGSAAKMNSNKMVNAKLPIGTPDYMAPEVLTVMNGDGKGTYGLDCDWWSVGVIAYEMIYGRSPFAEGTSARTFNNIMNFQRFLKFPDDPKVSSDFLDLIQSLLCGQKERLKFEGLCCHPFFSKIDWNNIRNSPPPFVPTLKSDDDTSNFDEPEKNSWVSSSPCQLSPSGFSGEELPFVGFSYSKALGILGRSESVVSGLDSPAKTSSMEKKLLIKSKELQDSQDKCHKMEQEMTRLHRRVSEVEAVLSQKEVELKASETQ
assay comment: CIT enzyme assay (ADP-Glo)
Type: biochemical
cond: ADP-Glo, ATP 5 μM; read-out: CIT IC50
pIC50: −log10 of the molar value.
Here, each record is paired with measured pIC50 data.
assay readout: pIC50

INSERT INTO results (molecular_string, result) VALUES
  ('CN(C1=N/C(=C\c2ccc3ncsc3c2)C(=O)N1)c1ccccc1', '6.00 to 7.00'),
  ('CN(C1=N/C(=C\c2ccc3c(c2)OCCO3)C(=O)N1)c1ccc2ncsc2c1', '< 5.00'),
  ('Cn1cnc2ccc(/C=C3\N=C(Nc4ccccc4)NC3=O)cc21', '6.00 to 7.00'),
  ('NC1=N/C(=C\c2ccc3ncsc3c2)C(=O)N1', '6.00 to 7.00'),
  ('CN(C1=N/C(=C\c2ccc3ncsc3c2)C(=O)N1)c1ccc(N)cc1', '6.00 to 7.00'),
  ('Cc1nc2ccc(NC3=N/C(=C\c4ccc5ncsc5c4)C(=O)N3)cc2s1', '< 5.00'),
  ('CN(C1=N/C(=C\c2ccc3c(c2)OCO3)C(=O)N1)c1ccc2ncsc2c1', '< 5.00'),
  ('CN(Cc1ccccc1)C1=N/C(=C\c2ccc3c(c2)OCO3)C(=O)N1', '< 5.00'),
  ('O=C1/C(=C/c2ccc3ncsc3c2)N=C(N(Cc2ccccc2)c2ccccc2)N1Cc1ccccc1', '< 5.00');
